TARGET OF ASSAY: ExsA (Pseudomonas aeruginosa)
Construct: made in house
Sequence (P26993 whole entry): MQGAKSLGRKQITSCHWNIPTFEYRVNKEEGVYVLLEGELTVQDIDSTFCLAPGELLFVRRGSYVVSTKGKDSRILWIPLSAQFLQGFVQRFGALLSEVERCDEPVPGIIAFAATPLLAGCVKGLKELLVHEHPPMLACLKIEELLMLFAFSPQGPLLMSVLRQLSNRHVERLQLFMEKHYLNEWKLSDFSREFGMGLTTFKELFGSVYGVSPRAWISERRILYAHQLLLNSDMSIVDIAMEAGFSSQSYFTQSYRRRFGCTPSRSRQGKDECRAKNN
PROTOCOL NOTES: Chemiluminescence-based ExsA-DNA binding assay
Design: species or system P. aeruginosa
REPORTED CONDITIONS: Table 7, cell-free system; read-out: ExsA EC50
Each record here notes measured EC50.

# TEST SMILES, TARGET OF ASSAY, EC50
rows = [
    ("O=[N+]([O-])c1ccc2nc(-c3ccc(C#Cc4ccc(F)cc4)cc3)n(O)c2c1", "ExsA (Pseudomonas aeruginosa)", "> 25 µM"),
    ("NC(=O)c1ccc2nc(-c3ccc(NC(=O)c4ccc(F)cc4)cc3)n(O)c2c1", "ExsA (Pseudomonas aeruginosa)", "> 25 µM"),
    ("NS(=O)(=O)c1ccc(C(=O)Nc2ccc(-c3nc4ccc([N+](=O)[O-])cc4n3O)cc2)cc1", "ExsA (Pseudomonas aeruginosa)", "10 to 25 µM"),
    ("O=C(Nc1ccc(-c2nc3ccncc3n2O)cc1)c1ccc(F)cc1", "ExsA (Pseudomonas aeruginosa)", "> 25 µM"),
]

Q: Any idea what EC50 was measured for "COc1cc(NC(=O)c2ccc(F)cc2)ccc1-c1nc2ccc([N+](=O)[O-])cc2n1O" ?
A: 10 to 25 µM

Q: Any idea what EC50 was measured for "CC(=O)c1ccc(C(=O)Nc2ccc(-c3nc4ccc(-n5ccnc5)cc4n3O)cc2)cc1" ?
A: > 25 µM

Q: Any idea what EC50 was measured for "CN(C)c1cc2nc(-c3ccc(NC(=O)/C=C/c4ccc(F)cc4)cc3)n(O)c2cc1[N+](=O)[O-]" ?
A: 10 to 25 µM

Source of measurements: patent US20090131481A1
